system_name: human orexin 1 receptors (Homo sapiens)
Sequence (O43613 whole entry): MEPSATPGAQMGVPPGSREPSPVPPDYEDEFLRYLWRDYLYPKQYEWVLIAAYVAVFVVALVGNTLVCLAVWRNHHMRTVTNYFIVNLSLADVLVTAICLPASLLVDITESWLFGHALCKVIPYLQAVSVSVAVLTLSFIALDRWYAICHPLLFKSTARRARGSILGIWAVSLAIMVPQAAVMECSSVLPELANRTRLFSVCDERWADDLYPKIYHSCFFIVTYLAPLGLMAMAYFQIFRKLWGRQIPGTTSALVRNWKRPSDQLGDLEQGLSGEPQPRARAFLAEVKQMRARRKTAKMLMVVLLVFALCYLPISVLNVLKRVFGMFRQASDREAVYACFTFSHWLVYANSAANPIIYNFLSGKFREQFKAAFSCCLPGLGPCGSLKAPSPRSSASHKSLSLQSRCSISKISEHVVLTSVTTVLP
method_notes: Calcium accumulation in cells (FLIPR), hOx1R
Can you tell me pKi for the items I'm about to list?
One number for each entry, as −log10 of the molar value.

Recorded results for 3 compounds are shown here.
COc1cc(C)nc(N2CCC3(CCCN(Cc4c[nH]c5ccccc45)C3=O)CC2)n1 [Example 4]    6.87
Cc1cc(C)nc(N2CCC3(CCCC(=O)N3Cc3cccc4[nH]ccc34)CC2)n1 [Example 3]    6.42
Cc1cc(C)nc(N2CCC3(CCCN(Cc4cccc(-c5ncccn5)c4)C3=O)CC2)n1 [Example 31]    5.79

Consider the following items and state reported pKi for each.
1. Cc1cc(C)nc(N2CCC3(CCCN(Cc4cccc(-c5ncccn5)c4)C3=O)CC2)c1 [Example 74]
2. O=C1CCCC2(CCN(c3cncc(Cl)n3)CC2)N1Cc1cccc2[nH]ccc12 [Example 44]
3. O=C1N(Cc2c[nH]c3ncccc23)CCCC12CCN(c1cncc(Cl)n1)CC2 [Example 18]
4. COCc1cccc(-c2oc(C)nc2CN2CCCC3(CCN(c4nc(C)cc(C)n4)CC3)C2=O)c1 [Example 124]

Result:
[5.67, 5.80, 5.49, 7.00]

Consider the following items and state reported pKi for each.
1. Cc1ccnc(N2CCC3(CCCN(Cc4cccc(-c5ncc(C)o5)c4)C3=O)CC2)n1 [Example 38]
2. Cc1cnc(N2CCC3(CCCN(Cc4c[nH]c5ccccc45)C3=O)CC2)nc1C [Example 81]

Result:
1: 6.03; 2: 5.69
